Just for reference, ChEMBL document CHEMBL1781976 is where these values come from.

# System Tested: Delta-type opioid receptor (Rattus norvegicus)
# Sequence (P33533 whole entry): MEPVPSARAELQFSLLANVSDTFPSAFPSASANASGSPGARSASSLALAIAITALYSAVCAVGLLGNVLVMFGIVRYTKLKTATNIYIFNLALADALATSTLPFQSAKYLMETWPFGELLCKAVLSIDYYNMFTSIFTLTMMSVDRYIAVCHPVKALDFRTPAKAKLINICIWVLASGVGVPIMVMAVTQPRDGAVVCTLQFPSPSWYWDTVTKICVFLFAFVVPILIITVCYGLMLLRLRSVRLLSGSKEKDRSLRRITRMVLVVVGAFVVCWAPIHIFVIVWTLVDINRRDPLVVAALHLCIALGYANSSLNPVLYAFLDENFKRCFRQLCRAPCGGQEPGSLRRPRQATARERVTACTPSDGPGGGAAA
# Measurement Description: Displacement of [3H]DPDPE from delta opioid receptor in rat brain membranes
Ki values by entry
Report as a plain number; the unit nM is understood.

- Compound: "O=C(Cc1ccc(Cl)c(Cl)c1)N1CC2CCCC(N3CCCC3)C1CN2Cc1ccccc1 (racemic; 14)"
  System Tested: "Delta-type opioid receptor (Rattus norvegicus)"
  Ki [nM]: 150

Then there is this compound:
Query: Which Ki is listed for O=C(Cc1ccc(Cl)c(Cl)c1)N1CC2CCCC(N3CCCC3)C1CN2Cc1ccccc1 (racemic; 26) ?
Result: 324

* * *

# System Tested: Kappa-type opioid receptor (Homo sapiens)
# Sequence (P41145 whole entry): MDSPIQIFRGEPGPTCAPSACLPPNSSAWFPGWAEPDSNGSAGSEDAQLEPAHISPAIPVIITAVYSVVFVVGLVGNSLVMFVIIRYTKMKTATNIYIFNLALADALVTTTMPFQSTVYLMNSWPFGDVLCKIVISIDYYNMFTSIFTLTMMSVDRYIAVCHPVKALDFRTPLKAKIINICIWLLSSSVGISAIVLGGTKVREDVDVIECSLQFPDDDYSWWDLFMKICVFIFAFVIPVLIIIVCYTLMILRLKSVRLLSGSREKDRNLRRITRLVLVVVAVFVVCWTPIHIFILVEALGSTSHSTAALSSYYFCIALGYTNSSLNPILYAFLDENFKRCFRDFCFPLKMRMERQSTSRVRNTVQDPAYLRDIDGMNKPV
Ki values by entry
Report as a plain number; the unit nM is understood.

- Smiles Notation: "COC(=O)N1CCN(C(=O)Cc2ccc(Cl)c(Cl)c2)[C@@H]([C@@H](C)N2CCCC2)C1"
  Scale Unit: "nM"
  Ki: 0.31

Query: # query: Ki | item COC(=O)N1CCN(C(=O)Cc2ccc(Cl)c(Cl)c2)[C@H](CN2CCCC2)C1 | system: Kappa-type opioid receptor (Homo sapiens)
Result: 0.45
